These entries and their values trace back to patent US20180244611A1.

Target: F508delCFTR (Homo sapiens, UniProt P13569, DEL508-508)
Construct: expressed in transfected cells; host or cells: CFBE41o- human lung-derived epithelial cells (CFBE41o-F508delCFTR-HRP), doxycycline-inducible
Sequence (P13569 with tags, fused parts or gaps DEL508-508): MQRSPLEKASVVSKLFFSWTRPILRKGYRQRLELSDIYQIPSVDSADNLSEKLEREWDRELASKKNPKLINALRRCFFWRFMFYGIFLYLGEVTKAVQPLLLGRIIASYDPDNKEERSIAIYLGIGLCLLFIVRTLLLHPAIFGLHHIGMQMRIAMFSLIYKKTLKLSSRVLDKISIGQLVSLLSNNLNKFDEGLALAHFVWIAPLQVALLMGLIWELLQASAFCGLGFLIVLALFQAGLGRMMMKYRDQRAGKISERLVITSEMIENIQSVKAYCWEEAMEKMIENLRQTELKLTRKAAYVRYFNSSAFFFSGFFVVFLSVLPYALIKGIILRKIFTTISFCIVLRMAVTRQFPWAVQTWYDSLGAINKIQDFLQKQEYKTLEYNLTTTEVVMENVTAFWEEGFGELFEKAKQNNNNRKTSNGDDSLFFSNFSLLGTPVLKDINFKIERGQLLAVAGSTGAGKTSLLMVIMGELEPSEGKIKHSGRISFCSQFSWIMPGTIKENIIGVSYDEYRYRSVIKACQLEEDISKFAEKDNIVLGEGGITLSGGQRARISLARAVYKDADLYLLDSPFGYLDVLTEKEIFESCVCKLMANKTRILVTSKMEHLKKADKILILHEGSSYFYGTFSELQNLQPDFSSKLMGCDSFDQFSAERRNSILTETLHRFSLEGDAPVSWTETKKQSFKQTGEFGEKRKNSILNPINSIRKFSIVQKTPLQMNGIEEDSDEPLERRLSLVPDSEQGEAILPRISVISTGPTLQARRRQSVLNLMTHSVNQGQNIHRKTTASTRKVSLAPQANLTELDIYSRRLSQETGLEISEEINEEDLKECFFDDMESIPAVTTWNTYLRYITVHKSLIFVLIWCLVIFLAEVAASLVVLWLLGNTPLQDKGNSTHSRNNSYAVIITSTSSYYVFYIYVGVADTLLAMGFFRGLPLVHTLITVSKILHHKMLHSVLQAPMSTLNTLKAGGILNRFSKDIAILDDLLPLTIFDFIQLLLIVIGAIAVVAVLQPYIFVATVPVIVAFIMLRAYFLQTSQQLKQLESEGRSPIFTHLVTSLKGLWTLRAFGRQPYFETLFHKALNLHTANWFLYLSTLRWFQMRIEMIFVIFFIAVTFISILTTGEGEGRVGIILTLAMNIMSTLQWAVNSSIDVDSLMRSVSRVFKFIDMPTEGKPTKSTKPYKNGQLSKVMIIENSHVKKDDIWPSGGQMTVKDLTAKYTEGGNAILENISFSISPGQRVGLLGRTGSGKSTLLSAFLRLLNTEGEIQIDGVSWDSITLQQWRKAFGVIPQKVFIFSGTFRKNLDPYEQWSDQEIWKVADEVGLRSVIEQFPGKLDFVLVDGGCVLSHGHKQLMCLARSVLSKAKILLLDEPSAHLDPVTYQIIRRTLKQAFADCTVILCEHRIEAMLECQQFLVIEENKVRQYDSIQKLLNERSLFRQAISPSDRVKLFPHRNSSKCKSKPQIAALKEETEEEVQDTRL
Assay: Cell Surface Expression-Horse Radish Peroxidase (CSE-HRP) assay, test compound with co-corrector
Type: cell-based
Conditions: with 2 μM co-corrector
Collected EC50 values appear next to each entry.

Here's what some known entries look like.
| compound | target_or_test_system | result |
| --- | --- | --- |
| COc1cccc2c1CCC2C(=O)NS(=O)(=O)c1ccc(C)cn1 (stereo not shown) | F508delCFTR (Homo sapiens, UniProt P13569, DEL508-508) | ≥ 10 µM |
| COc1ccc(C2CCC2)c2c1[C@H](C(=O)NS(=O)(=O)c1cccc3cnn(C)c13)C2 | F508delCFTR (Homo sapiens, UniProt P13569, DEL508-508) | < 3 µM |
| COc1cccc(COc2ccc(Br)c3c2CCCC3C(=O)NS(=O)(=O)c2cccc3ccccc23)c1 (stereo not shown) | F508delCFTR (Homo sapiens, UniProt P13569, DEL508-508) | 3 to 10 µM |

# input Hello, please tell me recorded EC50 for this one: COc1ccc(OC)c2c1CC[C@@H]2C(=O)NS(=O)(=O)c1cccc2ccccc12
# output 3 to 10 µM

====

Biological target: F508delCFTR (Homo sapiens, UniProt P13569, DEL508-508)
Construct: expressed in transfected cells; host or cells: CFBE41o- human lung-derived epithelial cells (CFBE41o-F508delCFTR-HRP), doxycycline-inducible
Experiment: Cell Surface Expression-Horse Radish Peroxidase (CSE-HRP) assay, test compound without co-corrector;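 note: percent of on-plate 2 µM positive control corrector response over DMSO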
Type: cell-based
Settings: maximum at any tested concentration, normalized to positive control, without co-corrector
Method: Cell Surface Expression-Horse Radish Peroxidase (CSE-HRP) Assay […] The % activity measured at each of the 8 test concentrations of the test compound added either without or with a co-corrector (2 μM of 3-[(2R,4R)-4-({[1-(2,2-difluoro-1,3-benzodioxol-5-yl)cyclopropyl]carbonyl}amino)-7-methoxy-3,4-dihydro-2H-chromen-2-yl]benzoic acid) was normalized to the on-plate positive control using the following formulae: […]
attribute_measured: Emax

Use these answered entries as a reference point.
| compound | result |
| --- | --- |
| Cc1ccccc1S(=O)(=O)NC(=O)C1CCCc2cc(F)ccc21 (stereo not drawn) | < 50% |
| COc1cccc(COc2ccc(Br)c3c2CCCC3C(=O)N(Cc2cccc(OC)c2)S(=O)(=O)c2cccc3ccccc23)c1 (stereo not drawn) | < 50% |
| COc1ccc(C2CCC2)c2c1C(C(=O)NS(=O)(=O)c1cccc3ncccc13)CC2 (stereo not drawn) | ≥ 150% |
| COc1ccc(C#N)c2c1C(C(=O)NS(=O)(=O)c1cccc3ccccc13)CCC2 (stereo not drawn) | ≥ 150% |
| CCOC(=O)c1ccc(S(=O)(=O)NC(=O)C2CCc3c(OC)cccc32)cc1 (stereo not drawn) | < 50% |
| COc1ccc(Br)c2c1C(C(=O)NS(=O)(=O)c1cccc3cnn(C)c13)CC2 (stereo not drawn) | ≥ 150% |
| CCC1(C(=O)NS(=O)(=O)c2ccccc2F)CCc2c(Cl)cccc21 (stereo not drawn) | < 50% |
| COc1cccc2c1CC[C@@]2(C)C(=O)NS(=O)(=O)c1cccc2ccccc12 | ≥ 150% |

# input Quickly give me recorded Emax for CCC1(C(=O)NS(=O)(=O)c2ccccc2C)CCc2c(Cl)cccc21 (stereo not drawn)
# output < 50%
